Taken from patent US20220380801A1.

Recorded Binding fold change [(HCV protease + Simeprevir binding)/HCV protease alone] by entry
# TESTED TARGET: HCV NS3/4A PR (S139A):simeprevir complex (Hepatitis C virus subtype 1a)
# ASSAY COMMENT: phage ELISA
READOUT TYPE: Binding fold change [(HCV protease + Simeprevir binding)/HCV protease alone] (fold)

| BINDER | MEASURE UNIT | MEASUREMENT |
| --- | --- | --- |
| PRSIM_33 (designed binder) RLDAPSQIEVKDVTDTTALITWYPPGRWYDDIWYFELTYGIKDVPGDRTTIKLARGDDVYSIGNLKPDTEYEVSLISWGPDRGDRAGSNPAKITFKTGL | fold | 29.9 |
| PRSIM_32 (designed binder) RLDAPSQIEVKDVTDTTALITWWSPRYYYASISGFELTYGIKDVPGDRTTIKLDYASNDYSIGNLKPDTEYEVSLISWNYGDWRYSSSNPAKITFKTGL | fold | 22.4 |
| PRSIM_47 (designed binder) RLDAPSQIEVKDVTDTTALITWSRPGVSIWYFELTYGIKDVPGDRTTIKLDYRSYYYSIGNLKPDTEYEVSLISGSYGLVGVRASNPAKITFKTGL | fold | 25.3 |
| PRSIM_36 (designed binder) RLDAPSQIEVKDVTDTTALITWSWPRDDDYDIWYFELTYGIKDVPGDRTTIKLLNYASPYSIGNLKPDTEYEVSLISVVPDTYGRGTSNPAKITFKTGL | fold | 27.9 |
